# inhibition listing for each entry below
# System: Calcium/calmodulin-dependent protein kinase type IV (Homo sapiens) (UniProt Q16566);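 note: each value is a mean inhibition of CAMK4, part of the GSK PKIS kinase screening panel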
# Sequence (whole entry): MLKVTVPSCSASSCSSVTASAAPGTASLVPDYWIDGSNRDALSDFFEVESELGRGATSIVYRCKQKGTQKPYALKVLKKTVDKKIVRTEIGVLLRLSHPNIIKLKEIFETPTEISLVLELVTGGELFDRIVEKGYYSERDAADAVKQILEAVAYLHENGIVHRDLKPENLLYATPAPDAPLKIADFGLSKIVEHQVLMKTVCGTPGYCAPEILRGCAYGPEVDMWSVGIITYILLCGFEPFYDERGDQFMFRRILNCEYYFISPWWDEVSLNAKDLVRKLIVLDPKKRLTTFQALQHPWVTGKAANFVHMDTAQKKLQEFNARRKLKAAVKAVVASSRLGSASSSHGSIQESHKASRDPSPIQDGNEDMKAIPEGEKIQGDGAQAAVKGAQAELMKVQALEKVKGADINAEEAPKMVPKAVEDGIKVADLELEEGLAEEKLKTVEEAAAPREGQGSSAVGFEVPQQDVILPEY
# Experimental Context: at 0.1 µM
Unit % implied. Number only.

O=C1NC(=O)C(c2cccc(Cl)c2)=C1Nc1ccc(Cl)c(C(=O)O)c1	-0.36

# input Could you share which inhibition value was measured for "COc1cc2ncn(-c3cc(OCc4cccs4)c(C(N)=O)s3)c2cc1OC" ?
# output -3.4

# input Could you share which inhibition value was measured for Nc1nccc(-c2c(-c3ccc(F)cc3)ncn2C2CCC(O)CC2)n1 (stereo not drawn) ?
# output 9.35

# input Could you share which inhibition value was measured for "COc1cc2ncn(-c3cc(OCc4ccccc4C(F)(F)F)c(C(C)=O)s3)c2cc1OC" ?
# output -0.3

# input Could you share which inhibition value was measured for "FC(F)(F)c1cccc(Nc2nccc(-c3cnn4nc(-c5ccccc5)ccc34)n2)c1" ?
# output 1.79

# input Could you share which inhibition value was measured for "O=C(Nc1n[nH]c2nc(-c3ccc(O)cc3)c(Br)cc12)C1CC1" ?
# output -0.14

# input Could you share which inhibition value was measured for "Cc1ccc(C(=O)NC2CCC2)cc1-c1ccc(C(=O)NCC2CC2)cc1" ?
# output 0.4

# input Could you share which inhibition value was measured for COc1ccc2cc(-c3c(-c4ccncc4)nc(-c4ccc([S+](C)[O-])cc4C)n3C)ccc2c1 (stereo not drawn) ?
# output 0.58

# input Could you share which inhibition value was measured for "C/C(Nc1ccc(S(N)(=O)=O)cc1)=C1/C(=O)Nc2ccccc21" ?
# output -2.35

# input Could you share which inhibition value was measured for "COc1cccc(/C=N/Nc2ncnc3c2cnn3-c2cccc(OC)c2)c1" ?
# output -0.53

# input Could you share which inhibition value was measured for "CN1CCN(CCCNc2nc3ccc(Oc4ccc(NC(=O)Nc5cc(C(F)(F)F)ccc5F)cc4)cc3[nH]2)CC1" ?
# output 1.94

# input Could you share which inhibition value was measured for "COC(=O)Nc1nc2ccc(Sc3ccc(NC(=O)Nc4cc(C(F)(F)F)ccc4F)cc3)cc2[nH]1" ?
# output 0.44

# input Could you share which inhibition value was measured for "NS(=O)(=O)c1ccc(N/N=C2\C(=O)Nc3ccc(C(=O)NCCCn4ccnc4)cc32)cc1" ?
# output -1.35

# input Could you share which inhibition value was measured for "CNC(=O)c1cncc(/C=C/c2c(C)cccc2C)c1" ?
# output 2.28

# input Could you share which inhibition value was measured for "COc1ccc(-c2ccc3c(NC(=O)C4CC4)n[nH]c3n2)cc1" ?
# output -1.51
